Every entry's value here was drawn from paper PMC8016129.

# Substrate: CCCCCCCCCCCCCCCC/C=C\OC[C@@H](O)COP(=O)([O-])OCC[N+](C)(C)C
# Protocol summary: released choline by choline oxidase/peroxidase colorimetric assay, Michaelis-Menten fit
# Assay type: biochemical, Thermocrispum sp. RD004668
# Test conditions: pH 8.0, 50 °C, 1 min, 2 mM CaCl2, substrate micelles
Km reference
Could you give me the number in µM? Just the number is fine.

LyPls-PLD (lysoplasmalogen-specific phospholipase D) (Thermocrispum sp. RD004668) (protein, recombinant from pET24/lpls-pld in E. coli BL21(DE3); purified on HisTrap HP) TTRTTDNPWLDARVLNMAHAGGENEAPANTLYAFKRAVKLGANMLELDVQSTKDDQLVVIHNATVDQTTDGTGKVRDLTFEQVHELDAAYNFIPGRHAVPGEPPESYPLRGVRTGEKKPPPGYQPSDFAIPKLADVLEAFPRTPINIEIKGTSDADIPSFLHNAKLLARLLKKTGRTDFIVTSFNDLAVAKFHLLAPDIPIAPGMAGLAAYFLLGVKPMHGTVALQIPVRYQGLEIATPEFIRRAHADGYAVHVWFSGTAPDDEATYNRIIDSCADGLMPAYPALLERILDERGIERPGRPGVDPCG :: 88.9

Shift focus to the following entry.
State, in one line, measured Km of LyPls-PLD (lysoplasmalogen-specific phospholipase D) (Thermocrispum sp. RD004668; F211L) (protein, recombinant from pET24/lpls-pld in E. coli BL21(DE3); purified on HisTrap HP) TTRTTDNPWLDARVLNMAHAGGENEAPANTLYAFKRAVKLGANMLELDVQSTKDDQLVVIHNATVDQTTDGTGKVRDLTFEQVHELDAAYNFIPGRHAVPGEPPESYPLRGVRTGEKKPPPGYQPSDFAIPKLADVLEAFPRTPINIEIKGTSDADIPSFLHNAKLLARLLKKTGRTDFIVTSLNDLAVAKFHLLAPDIPIAPGMAGLAAYFLLGVKPMHGTVALQIPVRYQGLEIATPEFIRRAHADGYAVHVWFSGTAPDDEATYNRIIDSCADGLMPAYPALLERILDERGIERPGRPGVDPCG
76.7
